- Test system: HepG2
- measurement.protocol: cytotoxicity call (relative viability < 0.9)
- settings: 10 µM
The campaign covered roughly 39,000 compounds. About 3,300 (8.5%) were called active. The full list was thinned out, with actives kept by preference.
readout.type: cytotoxicity call

C[C@H](CO)N1C[C@H](C)[C@@H](CN(C)Cc2ccc(Oc3ccccc3)cc2)Oc2ccc(NC(=O)Nc3ccc4c(c3)OCO4)cc2C1=O = inactive
CC(C)(C)C(=O)C[C@@H](Nc1ccccc1)c1ccc(Cl)cc1 = inactive
C[C@@H]1CN([C@@H](C)CO)C(=O)c2cccc(NC(=O)Nc3ccccc3)c2O[C@@H]1CN(C)Cc1ccc(-c2ccccc2)cc1 = active
CC(C)C(=O)NS(=O)(=O)c1ccc(N)cc1 = inactive
C[C@@H]1CN([C@@H](C)CO)C(=O)c2cccc(NC(=O)Nc3ccccc3)c2O[C@H]1CN(C)Cc1ccc(C(F)(F)F)cc1 = inactive

Next item in the queue.
-- ask Specify measured cytotoxicity call for `COc1ccc(CN(C)C[C@@H]2Oc3ccc(NC(=O)C4CC4)cc3CC(=O)N([C@@H](C)CO)C[C@H]2C)cc1` .
-- reply inactive
